B1: glmS ribozyme (parent)
chain: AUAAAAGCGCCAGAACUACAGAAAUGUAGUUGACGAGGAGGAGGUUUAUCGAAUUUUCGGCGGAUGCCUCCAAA

Variants of: B1
test.summary: self-cleavage kobs at 40 uM GlcN6P; higher = faster cleavage; RNA array
condition.set: with glucosamine-6-phosphate
Variants at the floor of the assay were thinned out.
Listed here: items and their measured self-cleavage kobs at 40 uM GlcN6P.
parameter.measured: self-cleavage kobs at 40 uM GlcN6P

chain_sequence=AUAAAAGCGCCAGUACUACAGAAAUGUAGUUGACGAGGAGGAGGUUUAUCGAAUUUUCGGCGGAUGCCCCCAAA endpoint_result="0.000126 s⁻¹"
chain_sequence=AUAAAAGCGCCAGAACUACAGAAAUGUAGUAGACGAGGAGGAGGUUUAUCGAAUUUUCGGUGGAUGCCUCCAAA endpoint_result="< 1e-05 s⁻¹"
chain_sequence=AUAAAAGCGCCAGUACUACAGAAAUGUAGUUGACCAGGAGGCGGUUUAUCGAAUUUUCGGCGGAUGCCUCCAAA endpoint_result="< 1e-05 s⁻¹"
chain_sequence=AUAAAAGCGCCAGAAAUACAGAAAUGUAGUUGACGAGGAGGGGGUUUAUCGAAUUUUCGGCGGAUGCCUCCAAA endpoint_result="3.27e-05 s⁻¹"
chain_sequence=AUAAAAGCGCCAGAACUACAGAAAUGUAGUCGACAAGGAGGAGGUUUAUCGAAUUUUCGGCGGAUGCCUCCAAA endpoint_result="< 1e-05 s⁻¹"
